test system: P. falciparum 3D7; test: Compound dose-response assay (72 h, SYBR Green I), 3D7; format: cell-based, Plasmodium falciparum; settings: 72 h, asexual blood stage
pIC50: −log10 of the molar value.
Listing: pIC50 of selected compounds

{"columns": ["COMPOUND", "pIC50"],
 "data": [
  ["O=[N+]([O-])c1ccc2nc(Nc3ccc(Cl)c(Cl)c3)c(Nc3ccc(Cl)c(Cl)c3)nc2c1 [Compound 22]", 7.66],
  ["O=C(Nc1ccc2nc(Nc3ccc(Cl)c(Cl)c3)c(Nc3ccc(Cl)c(Cl)c3)nc2c1)c1ccco1 [Compound 22f]", 6.54]
]}

###

system: P. falciparum Dd2; assay: Compound dose-response assay (72 h, SYBR Green I), Dd2; type: cell-based, Plasmodium falciparum; settings: Plasmodium falciparum, DD2, 72 h, 72 h, asexual blood stage
Listing: IC50 of selected compounds

{"columns": ["COMPOUND", "QUANTITY_UNIT", "IC50"],
 "data": [
  ["O=[N+]([O-])c1ccc2nc(Nc3cccc(Cl)c3)c(Nc3cccc(Cl)c3)nc2c1 [Compound 25]", "nM", 63.4],
  ["O=[N+]([O-])c1ccc2nc(Nc3ccc(C(F)(F)F)cc3)c(Nc3ccc(C(F)(F)F)cc3)nc2c1 [Compound 31]", "nM", 14],
  ["O=C(Nc1ccc2nc(Nc3ccc(Cl)c(Cl)c3)c(Nc3ccc(Cl)c(Cl)c3)nc2c1)c1ccco1 [Compound 22f]", "nM", 382],
  ["O=[N+]([O-])c1ccc2nc(Nc3cccc(C(F)(F)F)c3)c(Nc3cccc(C(F)(F)F)c3)nc2c1 [Compound 30]", "nM", 22],
  ["O=[N+]([O-])c1ccc2nc(NCCc3ccccc3)c(NCCc3ccccc3)nc2c1 [Compound 37]", "nM", 264],
  ["CC(=O)Nc1ccc2nc(Nc3ccc(Cl)c(Cl)c3)c(Nc3ccc(Cl)c(Cl)c3)nc2c1 [Compound 22c]", "nM", 181],
  ["O=[N+]([O-])c1ccc2nc(Nc3ccc(Cl)cc3)c(Nc3ccc(Cl)cc3)nc2c1 [Compound 26]", "nM", 36.8],
  ["COc1ccc(Nc2nc3ccc([N+](=O)[O-])cc3nc2Nc2ccc(OC)c(C(F)(F)F)c2)cc1C(F)(F)F [Compound 35]", "nM", 112],
  ["O=[N+]([O-])c1ccc2nc(Nc3ccc(Cl)c(Cl)c3)c(Nc3ccc(Cl)c(Cl)c3)nc2c1 [Compound 22]", "nM", 32],
  ["O=[N+]([O-])c1ccc2nc(Nc3ccc(F)c(C(F)(F)F)c3)c(Nc3ccc(F)c(C(F)(F)F)c3)nc2c1 [Compound 32]", "nM", 27.8],
  ["O=[N+]([O-])c1ccc2nc(Nc3cc(C(F)(F)F)ccc3F)c(Nc3cc(C(F)(F)F)ccc3F)nc2c1 [Compound 33]", "nM", 7.1]
]}

###

tested on: P. falciparum Dd2; assay: Compound dose-response assay (72 h, SYBR Green I), Dd2; format: cell-based, Plasmodium falciparum; settings: HepG2 72 h CC50 / Pf Dd2 IC50
Listing: Selectivity index HepG2/Dd2 of selected compounds

{"columns": ["COMPOUND", "Selectivity index HepG2/Dd2"],
 "data": [
  ["O=[N+]([O-])c1ccc2nc(Nc3cccc(C(F)(F)F)c3)c(Nc3cccc(C(F)(F)F)c3)nc2c1", 40.9],
  ["O=[N+]([O-])c1ccc2nc(Nc3cc(C(F)(F)F)ccc3F)c(Nc3cc(C(F)(F)F)ccc3F)nc2c1", 14.1],
  ["COc1ccc(Nc2nc3ccc([N+](=O)[O-])cc3nc2Nc2ccc(OC)c(C(F)(F)F)c2)cc1C(F)(F)F", 3.8],
  ["O=[N+]([O-])c1ccc2nc(NCCc3ccccc3)c(NCCc3ccccc3)nc2c1", 17.1],
  ["O=[N+]([O-])c1ccc2nc(Nc3ccc(F)c(C(F)(F)F)c3)c(Nc3ccc(F)c(C(F)(F)F)c3)nc2c1", 24.1],
  ["O=[N+]([O-])c1ccc2nc(Nc3ccc(C(F)(F)F)cc3)c(Nc3ccc(C(F)(F)F)cc3)nc2c1", 5.7],
  ["O=[N+]([O-])c1ccc2nc(Nc3cccc(Cl)c3)c(Nc3cccc(Cl)c3)nc2c1", 9.2],
  ["O=[N+]([O-])c1ccc2nc(Nc3ccc(Cl)c(Cl)c3)c(Nc3ccc(Cl)c(Cl)c3)nc2c1", 8.0],
  ["CC(=O)Nc1ccc2nc(Nc3ccc(Cl)c(Cl)c3)c(Nc3ccc(Cl)c(Cl)c3)nc2c1 [Compound 22c]", 25.4],
  ["O=C(Nc1ccc2nc(Nc3ccc(Cl)c(Cl)c3)c(Nc3ccc(Cl)c(Cl)c3)nc2c1)c1ccco1 [Compound 22f]", 14.9],
  ["O=[N+]([O-])c1ccc2nc(Nc3ccc(Cl)cc3)c(Nc3ccc(Cl)cc3)nc2c1", 3.5]
]}

###

tested on: β-hematin formation; test: Detergent-based β-hematin inhibition assay; type: biochemical; conditions: cell-free, NP40 detergent, pH 4.8; mean of two biological replicates; listed as chloroquine; read-out: βH Inhibition IC50, mean
pIC50: −log10 of the molar value.

{"columns": ["MOLECULE", "pIC50"],
 "data": [
  ["CCN(CC)CCCC(C)Nc1ccnc2cc(Cl)ccc12 (stereo not shown)", 4.80]
]}

###

tested on: P. falciparum 3D7; assay: Compound dose-response assay (72 h, SYBR Green I), 3D7; assay type: cell-based, Plasmodium falciparum; conditions: Plasmodium falciparum, 3D7, 72 h, 72 h, asexual blood stage
Listing: log10 IC50 of selected compounds
METRIC_NAME: log10 IC50 (log10 of the value in nM)

{"columns": ["COMPOUND", "log10 IC50"],
 "data": [
  ["O=[N+]([O-])c1ccc2nc(Nc3ccc(Cl)cc3)c(Nc3ccc(Cl)cc3)nc2c1", 1.48],
  ["COc1ccc(Nc2nc3ccc([N+](=O)[O-])cc3nc2Nc2ccc(OC)c(C(F)(F)F)c2)cc1C(F)(F)F", 1.76],
  ["O=[N+]([O-])c1ccc2nc(Nc3ccc(C(F)(F)F)cc3)c(Nc3ccc(C(F)(F)F)cc3)nc2c1", 0.99],
  ["O=[N+]([O-])c1ccc2nc(Nc3ccc(Cl)c(Cl)c3)c(Nc3ccc(Cl)c(Cl)c3)nc2c1", 1.34],
  ["O=[N+]([O-])c1ccc2nc(Nc3cc(C(F)(F)F)ccc3F)c(Nc3cc(C(F)(F)F)ccc3F)nc2c1", 0.65],
  ["O=[N+]([O-])c1ccc2nc(Nc3cccc(Cl)c3)c(Nc3cccc(Cl)c3)nc2c1", 1.76],
  ["O=[N+]([O-])c1ccc2nc(NCCc3ccccc3)c(NCCc3ccccc3)nc2c1", 2.34],
  ["O=[N+]([O-])c1ccc2nc(Nc3cccc(C(F)(F)F)c3)c(Nc3cccc(C(F)(F)F)c3)nc2c1", 1.13],
  ["CC(=O)Nc1ccc2nc(Nc3ccc(Cl)c(Cl)c3)c(Nc3ccc(Cl)c(Cl)c3)nc2c1 [Compound 22c]", 1.90],
  ["O=[N+]([O-])c1ccc2nc(Nc3ccc(F)c(C(F)(F)F)c3)c(Nc3ccc(F)c(C(F)(F)F)c3)nc2c1", 1.22],
  ["O=C(Nc1ccc2nc(Nc3ccc(Cl)c(Cl)c3)c(Nc3ccc(Cl)c(Cl)c3)nc2c1)c1ccco1 [Compound 22f]", 2.46]
]}

###

tested on: β-hematin formation; assay: Detergent-based β-hematin inhibition assay; type: biochemical; details: cell-free, NP40 detergent, pH 4.8; read-out: βH Inhibition IC50, individual biological replicate
METRIC_NAME: IC50

{"columns": ["SMILES_REPR", "ASSAYED_SYSTEM", "RESULT"],
 "data": [
  ["C[C@H]1Cc2c([nH]c3cc(Cl)c(F)cc23)[C@@]2(N1)C(=O)Nc1ccc(Cl)cc12", "β-hematin formation", "> 500 µM"]
]}
